- protocol.description: NCI Yeast Anticancer Drug Screen. Data for the mec2-1 strain (AID 157)
- assay.conditions: S. cerevisiae mec2-1 strain, at 50.0 µM, hits give high values
The panel holds about 79,000 compounds, 15% with a hit somewhere; the sample as a whole holds those more often.
Quick reference: growth inhibition of the listed items.
quantity.measured: growth inhibition (%)

INSERT INTO assay_data (compound, quantity_measured, result_number) VALUES
  ('COC(=O)N1c2ccccc2C23CCN4CCCC5(CCC12C(C(=O)O)C5)C43 (configuration not stated)', 'growth inhibition', 8.2),
  ('CCN(CC)CCCC(C)Nc1cc(C)c2nc(C)cc(C)c2c1C (configuration not stated)', 'growth inhibition', 9.45),
  ('CCOC(=O)c1cccc(Cl)c1C(=O)O', 'growth inhibition', -13.1),
  ('Oc1ccc2ccccc2c1', 'growth inhibition', -27.8),
  ('COC(=O)c1ccc(OC(=O)Nc2ccc(C)cc2)cc1', 'growth inhibition', -9.6),
  ('CC(CCC(=O)O)(CCC(=O)O)C(=O)O', 'growth inhibition', 3.85),
  ('COc1ccc(Cc2ccc(OC)cc2)cc1', 'growth inhibition', -5.3);
